normalized growth for assorted compounds
# experimental_protocol: chemical genetic growth profiling, strain panel (AID 1159580);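 further: tested at 20 µM; growth read once vehicle control cultures reached saturation at 30 °C; 1 = growth at the plate median or of vehicle wells; lower values mean less growth of the strain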
# experimental_parameters: S. cerevisiae deletion strains, growth OD, locus YJL187C, strain SWE1, active compounds read low
The whole screen tested about 5,500 compounds, of which about 2,000 (36%) were called active. About 18% were inconclusive and are not listed. Some of the results follow.

compound	normalized growth
CCCNC(C)C(=O)Nc1ccccc1C (centres undefined)	0.999
O=C1NC(c2c(F)cccc2Cl)Nc2ccccc21 (centres undefined)	1
C[C@H](COc1ccccc1)N[C@H](C)[C@H](O)c1ccc(O)cc1	1.01
Cc1ccc(CS/C(N)=N\N)cc1	0.995
CCn1cc(C(=O)O)c(=O)c2cnc(N3CCCC3)nc21	1
CN1CCc2cccc3c2C1Cc1ccc(O)c(O)c1-3 (centres undefined)	0.887
COc1cc2c(cc1O)CC1c3c(cc(O)c(OC)c3-2)CCN1C (centres undefined)	1
c1ccc(-c2ccc(C(c3ccccc3)n3ccnc3)cc2)cc1 (centres undefined)	0.0683
S=C(NCCCn1ccnc1)Nc1cc(Cl)ccc1Cl	1.01
COS(C)(=O)=O	0.992
O=C(O)c1cc(C(F)(F)F)ccc1F	0.998
COc1cc(C)c2c(c1C=O)Oc1c(c(C)c(O)c3c1C(O)OC3=O)OC2=O (centres undefined)	1.02
Cc1ccc(Cl)cc1NC(=S)NCCO	1.01
CSc1nc2ccc(NC(=O)c3c(-c4ccccc4)noc3C)cc2s1	1
CC1(C)O[C@@H]2[C@@H](CO[C@@]3(COS(N)(=O)=O)OC(C)(C)O[C@@H]23)O1	0.992
NCc1ccc(S(N)(=O)=O)cc1	1.01
Cc1onc(-c2ccccc2Cl)c1C(=O)Nc1ccc2c(c1)OCO2	1.01
CC(=O)O[C@H]1C[C@@H](OC(C)=O)C(C)(C)C2C[C@@H](OC(C)=O)[C@]3(C)C(CC[C@@]4(C)[C@H](c5ccoc5)C(=O)[C@H]5O[C@]543)[C@]21C (some centres undefined)	1
COc1ccc2c(c1O)-c1c(OC)c(OC)cc3c1[C@H](C2)N(C)CC3	0.994
c1cc2c(cc1[C@H]1OC[C@H]3[C@@H]1CO[C@H]3c1ccc3c(c1)OCO3)OCO2	0.932
NCCCCN=C(N)N	1.02
Cc1onc(-c2ccccc2Cl)c1C(=O)Nc1ccc(S(=O)(=O)Nc2nccs2)cc1	1
N/C(=N\OC(=O)c1ccno1)c1ccc(C(F)(F)F)cc1	0.993
O=C(O)c1ccc2c(c1)OCO2	1.02
